B1: S. cerevisiae Abp1 (full length; SH3 domain 535-592 mutated) / Hua2 (parent)
chain 1: MALEPIDYTTHSREIDAEYLKIVRGSDPDTTWLIISPNAKKEYEPESTGSSFHDFLQLFDETKVQYGLARVSPPGSDVEKIIIIGWCPDSAPLKTRASFAANFAAVANNLFKGYHVQVTARDEDDLDENELLMKISNAAGARYSIQTSSKQQGKASTPPVKKSFTPSKSPAPVSKKEPVKTPSPAPAAKISSRVNDNNDDDDWNEPELKERDFDQAPLKPNQSSYKPIGKIDLQKVIAEEKAKEDPRLVQKPTAAGSKIDPSSDIANLKNESKLKRDSEFNSFLGTTKPPSMTESSLKNDDDKVIKGFRNEKSPAQLWAERKAKQNSGNAETKAEAPKPEVPEDEPEGEPDVKDLKSKFEGLAASEKEEEEMENKFAPPPKKSEPTIISPKPFSKPQEPVKAEEAEQPKTDYKKIGNPLPGMHIEADNEEEPEENDDDWDDDEDEAAQPPLPSRNVASGAPVQKEEPEQEEIAPSLPSRNSIPAPKQEEAPEQAPEEEIEEEAEEAAPQLPSRSSAAPPPPPRRATPEKKPKENPWATAEYDYDAAEDNELTFVENDKIINIEFVDDDWWLGELEKDGSKGLFPSNYVSLGN
chain 2: MQQTKFGKMYLDHDSVVEYSEDEIVEADRITLGYKKRLSMIENQMRHLLEDFSLDVQQIEPILADLQKYYDAFLQLLQKRNKSLQCKRSTHQPVPSPMNSQTSTNAKVNLSGKLMKFQLNSVQKFDEENILRILQNKIEFEHYFQIDKGKKQKVLLLAVYQCLNGPTRLHKVLNIEGIIHNNSIRTILGKQVSSSKWTVFLYDVKLVLLAHRQDVPNLETSKMIVRYGDLFPCALYFKDHTAY

- Variants of: B1
- protocol: DHFR protein-fragment complementation in yeast (Abp1-DHFR F[1,2] x partner-DHFR F[3]), deep mutational scanning, second methotrexate selection vs reference
- conditions: with Hua2; S. cerevisiae, DHFR-PCA selection in liquid with methotrexate at 30 C, two 72 h selections (the score uses the second); reference = the pre-selection culture; not an affinity; value at the no-binding floor (a bound); scale: DMS score: mean over two replicates of log2(f_test/f_ref + 0.5)/ln 2, minus the synonymous-codon median
metric: screen value

{"columns": ["mutation-code", "result"],
 "data": [
  ["chain 1 I562E", "< -3.06"],
  ["chain 1 G581F", -3.01],
  ["chain 1 V588N", "< -3.06"],
  ["chain 1 W570E", -3.03],
  ["chain 1 G581L", "< -3.06"],
  ["chain 1 I562Q", "< -3.06"],
  ["chain 1 F583D", "< -3.06"],
  ["chain 1 A539Y", "< -3.06"],
  ["chain 1 A537N", "< -3.06"]
]}
